target: Neu5Ac(a2-3)GalNAc; test: glycan array binding signal (z-score within array); higher = stronger binding; settings: glycan notation: IUPAC condensed, linker removed
Shown is part of a subset that was picked to be rich in the strongest signals.
measured property: glycan array binding signal (z-score)

* RSVL (Crotalus atrox), P21963 (protein) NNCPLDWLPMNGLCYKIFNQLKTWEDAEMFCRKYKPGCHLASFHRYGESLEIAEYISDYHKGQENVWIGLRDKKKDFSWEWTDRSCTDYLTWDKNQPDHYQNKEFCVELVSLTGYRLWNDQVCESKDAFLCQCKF | -0.367
* FaeGad (Escherichia coli) (protein) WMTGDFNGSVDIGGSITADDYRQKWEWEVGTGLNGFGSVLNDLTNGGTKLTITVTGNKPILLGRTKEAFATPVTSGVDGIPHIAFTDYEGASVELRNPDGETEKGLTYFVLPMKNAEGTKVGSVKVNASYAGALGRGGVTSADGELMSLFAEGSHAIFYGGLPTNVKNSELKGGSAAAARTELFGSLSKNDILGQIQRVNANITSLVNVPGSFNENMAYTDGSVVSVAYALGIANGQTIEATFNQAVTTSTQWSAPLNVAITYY | -0.452
* GST Gap3 (Streptococcus parasanguinis) (protein) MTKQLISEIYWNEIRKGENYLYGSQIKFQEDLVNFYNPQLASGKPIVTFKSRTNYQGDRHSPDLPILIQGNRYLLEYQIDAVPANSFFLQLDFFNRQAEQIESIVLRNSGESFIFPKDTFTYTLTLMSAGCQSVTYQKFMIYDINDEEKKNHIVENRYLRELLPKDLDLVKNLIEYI | -0.101
* Aap arpt (Staphylococcus epidermidis) (protein) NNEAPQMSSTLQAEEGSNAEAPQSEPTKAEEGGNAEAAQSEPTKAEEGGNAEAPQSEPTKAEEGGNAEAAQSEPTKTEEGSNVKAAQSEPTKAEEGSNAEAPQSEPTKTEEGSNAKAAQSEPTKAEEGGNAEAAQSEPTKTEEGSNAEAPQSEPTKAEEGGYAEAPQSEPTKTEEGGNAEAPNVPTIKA | -0.745
